Values compiled from ChEMBL document CHEMBL1201862.

biological target: High affinity choline transporter 1 (Homo sapiens); experiment: human choline transporter blockers, potency – cell-based, 5-point CRC, membrane potential dye, dose response (AID 504840); format: functional
Sequence (Q9GZV3 whole entry): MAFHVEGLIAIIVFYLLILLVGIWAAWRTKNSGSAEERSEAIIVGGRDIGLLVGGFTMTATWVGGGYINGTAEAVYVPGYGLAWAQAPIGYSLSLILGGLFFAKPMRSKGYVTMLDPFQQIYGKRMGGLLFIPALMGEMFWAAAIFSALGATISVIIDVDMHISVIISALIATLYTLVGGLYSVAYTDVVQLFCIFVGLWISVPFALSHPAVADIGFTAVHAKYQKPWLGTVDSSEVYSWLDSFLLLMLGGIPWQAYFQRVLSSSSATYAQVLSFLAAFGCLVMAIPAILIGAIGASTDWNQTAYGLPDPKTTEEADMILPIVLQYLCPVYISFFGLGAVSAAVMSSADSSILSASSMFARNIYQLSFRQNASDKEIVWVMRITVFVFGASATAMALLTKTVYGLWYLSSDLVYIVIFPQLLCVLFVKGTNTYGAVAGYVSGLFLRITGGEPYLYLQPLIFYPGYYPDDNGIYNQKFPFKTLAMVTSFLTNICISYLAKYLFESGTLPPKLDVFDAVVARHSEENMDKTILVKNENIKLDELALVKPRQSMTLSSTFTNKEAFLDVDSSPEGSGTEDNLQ
Active and inactive are the calls of the source.

# molecule, target-or-system, IC50
records = [
    ("O=C(Nc1ccccc1C(=O)NCCCn1ccnc1)c1ccccc1", "High affinity choline transporter 1 (Homo sapiens)", "5.59 µM (active)"),
    ("COC(=O)Cn1c(CN2CCN(c3ccc(F)cc3)CC2)nc2c1c(=O)n(C)c(=O)n2C", "High affinity choline transporter 1 (Homo sapiens)", "3.59 µM (active)"),
    ("Oc1c(Br)cc(Br)c(/C=N/n2c(S)nnc2-c2ccccc2)c1Br", "High affinity choline transporter 1 (Homo sapiens)", "13.2 µM (active)"),
    ("CCCCCc1nc2sc3c(c2c(=O)n1NC(=O)c1ccc([N+](=O)[O-])cc1)CC(C)(C)OC3", "High affinity choline transporter 1 (Homo sapiens)", "12.6 µM (active)"),
    ("Cc1sc[n+](CC(=O)c2ccc(Br)cc2)c1C", "High affinity choline transporter 1 (Homo sapiens)", "8.46 µM (active)"),
    ("Nc1ncc(Br)cc1S(=O)(=O)Nc1cc(C(F)(F)F)cc(C(F)(F)F)c1", "High affinity choline transporter 1 (Homo sapiens)", "9.12 µM (active)"),
    ("CC1CCCCC1NC(=O)c1cccc(N2C(=O)C3C4C=CC(C4)C3C2=O)c1 (stereo not drawn)", "High affinity choline transporter 1 (Homo sapiens)", "14.5 µM (active)"),
    ("CCc1nnc(NS(=O)(=O)c2ccc(NC(=O)c3ccc(Br)cc3)cc2)s1", "High affinity choline transporter 1 (Homo sapiens)", "4.45 µM (active)"),
]

====

Collected EC50 values appear next to each entry.
target: Luciferin 4-monooxygenase (Photinus pyralis, UniProt P08659); experiment: inhibition of purified Photinus pyralis luciferase – biochemical, luminescence, dose response (AID 1891)
Sequence (P08659 whole entry): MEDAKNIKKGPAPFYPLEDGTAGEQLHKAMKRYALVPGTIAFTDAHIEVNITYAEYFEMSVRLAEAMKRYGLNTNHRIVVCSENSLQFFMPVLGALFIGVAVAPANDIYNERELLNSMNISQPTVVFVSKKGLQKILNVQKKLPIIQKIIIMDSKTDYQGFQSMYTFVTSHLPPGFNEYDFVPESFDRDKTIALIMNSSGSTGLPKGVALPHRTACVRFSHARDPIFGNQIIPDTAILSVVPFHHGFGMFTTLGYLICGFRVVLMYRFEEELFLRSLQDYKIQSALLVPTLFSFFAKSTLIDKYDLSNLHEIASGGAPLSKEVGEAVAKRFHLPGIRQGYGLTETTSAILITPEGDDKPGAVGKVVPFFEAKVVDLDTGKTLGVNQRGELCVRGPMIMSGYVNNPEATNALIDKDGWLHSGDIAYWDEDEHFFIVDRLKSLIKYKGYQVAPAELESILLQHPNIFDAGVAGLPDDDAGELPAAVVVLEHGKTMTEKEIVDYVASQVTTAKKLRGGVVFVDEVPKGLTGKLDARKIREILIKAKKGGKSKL
Active and inactive are the calls of the source.

# smiles-representation, target-or-system, EC50
records = [
    ("COCCn1cc(C(=O)N2CCC(C)CC2)c2c3ccccc3n(C)c2c1=O", "Luciferin 4-monooxygenase (Photinus pyralis, UniProt P08659)", "> 112 µM (not active)"),
    ("COc1ccc(C(=O)NNC(=O)c2ccccn2)cc1", "Luciferin 4-monooxygenase (Photinus pyralis, UniProt P08659)", "0.98 µM (active)"),
    ("COC(=O)c1cnn(-c2ccc(F)cc2F)c1/C=N/NC(N)=S", "Luciferin 4-monooxygenase (Photinus pyralis, UniProt P08659)", "> 112 µM (not active)"),
    ("CCOC(=O)NCCc1ccc(OC)cc1", "Luciferin 4-monooxygenase (Photinus pyralis, UniProt P08659)", "> 112 µM (not active)"),
    ("CCOC(=O)N1CCN(Cc2nc3c(c(=O)n(C)c(=O)n3C)n2Cc2cccc3ccccc23)CC1", "Luciferin 4-monooxygenase (Photinus pyralis, UniProt P08659)", "> 112 µM (not active)"),
    ("C/C(=C1/SC(=S)N(CCC(=O)O)C1=O)c1ccc(O)cc1", "Luciferin 4-monooxygenase (Photinus pyralis, UniProt P08659)", "> 112 µM (not active)"),
    ("COc1cc(NC(=O)c2ccccc2)c(OC)cc1NC(=O)CSc1nc(O)cc(C)c1C#N", "Luciferin 4-monooxygenase (Photinus pyralis, UniProt P08659)", "> 112 µM (not active)"),
    ("CCOC(=O)N1CCN(CC(=O)N2CCC(C(N)=O)CC2)CC1", "Luciferin 4-monooxygenase (Photinus pyralis, UniProt P08659)", "> 112 µM (not active)"),
    ("Cc1cccc(OCC(=O)Nc2nnc[nH]2)c1C", "Luciferin 4-monooxygenase (Photinus pyralis, UniProt P08659)", "> 112 µM (not active)"),
    ("CCOc1ccc(N/C=C/C(=O)c2ccccc2)cc1", "Luciferin 4-monooxygenase (Photinus pyralis, UniProt P08659)", "0.453 µM (active)"),
    ("COc1ccc(-c2cc(-c3ccccc3)no2)cc1", "Luciferin 4-monooxygenase (Photinus pyralis, UniProt P08659)", "0.895 µM (active)"),
    ("COc1cc(OC)cc(C(=O)NCCCN2CCN(CCCNC(=O)c3cc(OC)cc(OC)c3)CC2)c1", "Luciferin 4-monooxygenase (Photinus pyralis, UniProt P08659)", "> 112 µM (not active)"),
]

====

test: HIV-1 AD8 envelope cell-cell fusion blockers – cherry-pick, dose response (AID 652062); type: functional, cell-based;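 note: luciferase signal from cell-cell fusion driven by HIV-1 clade B AD8 Env; potency is for inhibitors of fusion seen as a drop in luminescence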
Calls of active or inactive are those of the source.
Collected AC50 values appear next to each entry.

# smiles-representation, AC50
records = [
    ("COc1ccc2c(C)nc(Nc3nc(C)c(C)c(O)n3)nc2c1", "8.79 µM (active)"),
    ("Cc1ccc(S(=O)(=O)N(C)C[C@@H]2OCc3ccccc3-c3c(n(C)c4ccccc34)C(=O)N([C@H](C)CO)C[C@@H]2C)cc1", "2.16 µM (active)"),
    ("CC(C)(C)c1ccc(C(=O)Nc2sc3c(c2C(=O)O)CCC3)cc1", "0.786 µM (active)"),
    ("C[C@H](CO)N1C[C@H](C)[C@H](CN(C)S(=O)(=O)c2cccs2)Oc2ccc(NC(=O)Nc3cccc4ccccc34)cc2CC1=O", "< 0.26 µM (active)"),
]

====

target: Heat shock protein HSP 90-alpha (Homo sapiens, UniProt P07900); format: functional, organism-based
The source made the active and inactive calls.
Collected AC50 values appear next to each entry.

# compound, AC50
data = [
    ("Cc1c(C)c2cccnc2c2ncccc12", "3.99 µM (active)"),
    ("CN1CCN(C(c2ccccn2)c2cc(Cl)c3cccnc3c2O)CC1 (centres undefined)", "6.54 µM (active)"),
    ("CC(C)(C)c1nn(-c2ccccc2)c2nc(O)c(C=O)cc12", "1.68 µM (active)"),
    ("N=C(Cc1ccc(Cl)c(Cl)c1)NOC(=O)c1ccc(Br)o1", "8.23 µM (active)"),
    ("Oc1ccc(Cl)cc1Cc1cc(Cl)ccc1O", "8 µM (active)"),
    ("Oc1c(C(Nc2nc3ccccc3s2)c2ccco2)ccc2cccnc12 (centres undefined)", "24.1 µM (active)"),
    ("Cc1c(Cc2ccccc2)c(NCCN(C)C)n2c(nc3ccccc32)c1C#N", "2.37 µM (active)"),
    ("Oc1c(Br)cc(Br)c(/C=N/n2c(S)nnc2-c2ccccc2)c1Br", "8.53 µM (active)"),
    ("CC(C)(C)c1ccc(-n2nc(C#N)c(Cl)cc2=O)cc1", "3.8 µM (active)"),
]

====

test: Luminescence Cell-Based Dose Response HTS to Identify Activators of Luciferase Translation or Activity in H4 […] Cells. [Related pubchem assays: 1829 (Project Summary), 1814 (Primary HTS)]; type: functional
The source made the active and inactive calls.
Collected EC50 values appear next to each entry.

# compound, EC50
measured = [
    ("Cc1ccc(N2CSC3=C(C#N)C(c4cccs4)CC(=O)N3C2)cc1 (stereo not drawn)", "17 µM (active)"),
    ("COC(=O)c1ccc(S(=O)(=O)N2CCc3ccccc32)cc1", "> 60 µM (not active)"),
    ("CCCn1cnc2cc(NCc3cccs3)ccc21", "11.8 µM (active)"),
    ("C/C(=N/OCC(=O)Nc1ccccc1)c1cccs1", "26.4 µM (active)"),
    ("N#Cc1cc2cc3c(cc2nc1N1CCCCC1)OCCO3", "1.82 µM (active)"),
    ("COc1ccc(/C=C2\\SC(=S)N(Cc3cccnc3)C2=O)cc1C", "11.1 µM (active)"),
    ("CCCCN1CC(=O)C(c2nc3ccccc3s2)=C1N", "30.8 µM (active)"),
    ("C=CCNc1nc(-c2ccc(OC)cc2OC)cs1", "26.8 µM (active)"),
]

====

Collected IC50 values appear next to each entry.
target: Protein Tat (Human immunodeficiency virus type 1 group M subtype B (isolate HXB2)(HIV-1), UniProt P04608); format: functional;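 note: tat binding to TAR RNA read out by fluorescence polarization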
Sequence (P04608 whole entry): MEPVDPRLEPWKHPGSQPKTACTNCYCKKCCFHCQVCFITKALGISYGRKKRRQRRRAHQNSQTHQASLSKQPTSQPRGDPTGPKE
The source made the active and inactive calls.

# molecule, IC50
records = [
    ("CCOC(=O)c1ccc(NC(=O)CSCc2ccco2)cc1", "81.6 µM (inconclusive)"),
    ("Cc1ccc(N2CSC3=C(C#N)C(c4cccs4)CC(=O)N3C2)cc1 (centres undefined)", "> 100 µM (active)"),
    ("COC(=O)C1=C(C)NC(=O)/C1=C\\c1cccs1", "> 100 µM (active)"),
    ("Cc1ccc(C)n1Cc1ccc(C(=O)O)cc1", "3.45 µM (inconclusive)"),
]

====

test system: BJ; assay: BJ-TERT-LT-ST fibroblast viability loss – cell-based, RAS-independent, luminescence, dose response (AID 1935); assay type: functional; conditions: Homo sapiens;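 note: BJ fibroblasts immortalized with TERT plus LT and ST oncogenes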
Calls of active or inactive are those of the source.
Collected EC50 values appear next to each entry.

# compound, EC50
rows = [
    ("CCC(=O)Nc1cccc(C(=O)/C=C/c2ccccc2)c1", "20.9 µM (inconclusive)"),
    ("O=C(NCc1cccnc1)c1ccc(NC(=O)c2ccc(Br)cc2)cc1", "14 µM (active)"),
    ("Cc1cc(N2CCN(Cc3cn(C)nc3-c3ccccc3F)CC2)cc(C)n1", "14.9 µM (active)"),
    ("CCCCC(CC)CN1C(=O)/C(=C/c2ccncc2)SC1=S (centres undefined)", "> 150 µM (not active)"),
]
